System: acetylcholinesterase (AChE), R-strain DBM larvae
Construct: gene ace1; native, 1,500 g supernatant of whole 4th instar larva homogenate, not purified
ASSAY PROCEDURE: Ellman colorimetric assay, […] nm, linear regression
Assay type: biochemical, Plutella xylostella
DETAILS: acetylthiocholine iodide 0.5 mM, DTNB 0.3 mM, 0.1 M phosphate pH 7.0, 6 min; above tested range (10^-3 to 10^-8 M); technical grade 90% a.i.; read-out: I50

{"columns": ["MOL", "IC50 (µM)"],
 "data": [
  ["CNC(=O)ON=C(C)SC", 2360]
]}
